system: UniProtKB P00760
Sequence (P00760 whole entry): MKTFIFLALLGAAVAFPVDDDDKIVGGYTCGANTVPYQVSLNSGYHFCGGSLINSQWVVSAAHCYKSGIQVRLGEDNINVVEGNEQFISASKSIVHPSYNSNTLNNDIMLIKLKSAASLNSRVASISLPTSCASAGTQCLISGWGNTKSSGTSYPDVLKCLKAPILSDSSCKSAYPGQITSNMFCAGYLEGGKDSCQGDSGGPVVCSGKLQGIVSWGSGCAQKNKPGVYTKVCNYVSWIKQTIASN
Each entry below lists one item and its recorded Ki value.
measurementName: Ki (µM)

1) Cc1c(F)c(Oc2cccc(C(=N)N)c2)nc(Oc2cccc([S+]([O-])N(C)C)c2)c1F (stereo not given) = 2.4
2) CN(C)c1cccc(Oc2cc(C(=O)O)cc(Oc3cc(C(=N)N)ccc3O)n2)c1 = 0.75
3) Cc1c(F)c(Oc2cccc(CCC(=O)N(C)C)c2)nc(Oc2cccc(C(=N)N)c2)c1F = 4.9

---

Target or system Prothrombin (Homo sapiens, UniProt P00734): recorded Ki listed per item.
measurementName: Ki

1) Cc1c(F)c(Oc2cccc(C(=N)N)c2)nc(Oc2cc(O)cc(C(=O)N(C)C)c2)c1F = 0.74 µM
2) Cc1c(F)c(Oc2cccc(OC(F)(F)F)c2)nc(Oc2cccc(C(=N)N)c2)c1F = > 5 µM
3) Cc1c(F)c(Oc2cccc(C(=N)N)c2)nc(Oc2cccc(-n3ccnc3)c2)c1F = > 5 µM
4) COc1ccc(C(=O)N(C)C)cc1Oc1nc(Oc2cccc(C(=N)N)c2)c(F)c(C)c1F = > 5 µM
5) Cc1c(F)c(Oc2cccc(C(=N)N)c2)nc(Oc2cccc(C(=O)N3CCCCC3)c2)c1F = > 5 µM
6) CCOC(=O)c1ccc(N(C)C)cc1Oc1nc(Oc2cccc(C(=N)N)c2)c(F)c(C)c1F = > 5 µM
7) Cc1c(F)c(Oc2cccc(N(C)C)c2)nc(Oc2cc(C(=N)N)ccc2NS(C)(=O)=O)c1F = > 5 µM
8) N=C(N)c1ccc(O)c(Oc2cc(C(=O)O)cc(Oc3cccc(NCCN)c3)n2)c1 = 3.4 µM
9) Cc1c(F)c(Oc2cccc(OC(C)C)c2)nc(Oc2cccc(C(=N)N)c2)c1F = 5.3 µM
10) Cc1c(F)c(Oc2cccc(CC(N)=O)c2)nc(Oc2cccc(C(=N)N)c2)c1F = > 5 µM
11) Cc1c(F)c(Oc2cccc(C(=N)N)c2)nc(Oc2cccc(C(F)(F)F)c2)c1F = > 5 µM
12) CCN(CC)c1cccc(Oc2nc(Oc3cccc(C(=N)N)c3)c(F)c(C)c2F)c1 = 0.73 µM
13) Cc1cn(-c2cccc(Oc3cc(C(=O)O)cc(Oc4cc(C(=N)N)ccc4O)n3)c2)cn1 = 0.65 µM
14) Cc1c(F)c(Oc2cccc(N(C)C)c2)nc(Oc2cc(C(=N)N)ccc2N)c1F = 0.3 µM
15) CC(=O)c1cccc(Oc2nc(Oc3cccc(C(=N)N)c3)c(F)c(C)c2F)c1 = > 5 µM
16) Cc1c(F)c(Oc2cccc(N(C)C)c2)nc(Oc2cc(C(=N)N)ccc2O)c1F = 0.19 µM
17) CCOC(=O)Cc1cccc(Oc2nc(Oc3cccc(C(=N)N)c3)c(F)c(C)c2F)c1 = > 5 µM
18) CN(C)C(=O)c1cccc(Oc2cc(C(=O)O)cc(Oc3cccc(C(=N)N)c3)n2)c1 = > 5 µM
19) Cc1c(F)c(Oc2cccc(Cl)c2)nc(Oc2cccc(C(=N)N)c2)c1F = > 5 µM

---

pKi: −log10 of the molar value.
Target or system Coagulation factor X (Homo sapiens, UniProt P00742): recorded pKi listed per item.
measurementName: pKi

1. Cc1c(F)c(Oc2cccc(C(=N)N)c2)nc(Oc2cccc([N+](=O)[O-])c2)c1F = 5.60
2. Cc1c(F)c(Oc2cccc(C(=O)N(C)C)c2)nc(Oc2cc(C(=N)N)cc(O)c2O)c1F = 7.64
3. Cc1c(F)c(Oc2cccc(CN)c2)nc(Oc2cccc(C(=N)N)c2)c1F = 5.85
4. Cc1c(F)c(Oc2cccc(NS(C)(=O)=O)c2)nc(Oc2cccc(C(=N)N)c2)c1F = 5.42
5. Cc1c(F)c(Oc2cccc(C(=N)N)c2)nc(Oc2cccc(C(O)C(=O)N(C)C)c2)c1F (centres undefined) = 5.66
6. CC(=O)c1cccc(Oc2nc(Oc3cccc(C(=N)N)c3)c(F)c(C)c2F)c1 = 5.85
7. Cc1c(F)c(Oc2cccc(N)c2)nc(Oc2cccc(C(=N)N)c2)c1F = 5.48
8. N=C(N)c1cccc(Oc2cc(C(=O)O)cc(Oc3cc(C(=N)N)ccc3O)n2)c1 = 8.22
9. Cc1c(F)c(Oc2cccc(C(=N)N)c2)nc(Oc2cccc(C(=O)N(C)Cc3ccccc3)c2)c1F = 5.62
10. Cc1c(F)c(Oc2cccc(OC(F)(F)F)c2)nc(Oc2cccc(C(=N)N)c2)c1F = 5.74
11. Cc1nccn1-c1cccc(Oc2cc(C(=O)O)cc(Oc3cc(C(=N)N)ccc3O)n2)c1 = 8.10
12. Cc1c(F)c(Oc2cccc(F)c2)nc(Oc2cccc(C(=N)N)c2)c1F = 5.49
13. Cc1cn(C)c(-c2cccc(Oc3cc(C(=O)O)cc(Oc4cc(C(=N)N)ccc4O)n3)c2)n1 = 8.08
14. Cc1c(F)c(Oc2cccc(C(=N)N)c2)nc(Oc2cccc(C(O)C(N)=O)c2)c1F (centres undefined) = 6.43
15. CC1(C)CNC(c2cccc(Oc3cc(C(=O)O)cc(Oc4cc(C(=N)N)ccc4O)n3)c2)=N1 = 6.09

---

system: Coagulation factor X (Homo sapiens, UniProt P00742)
Sequence (P00742 41-179 limits assumed): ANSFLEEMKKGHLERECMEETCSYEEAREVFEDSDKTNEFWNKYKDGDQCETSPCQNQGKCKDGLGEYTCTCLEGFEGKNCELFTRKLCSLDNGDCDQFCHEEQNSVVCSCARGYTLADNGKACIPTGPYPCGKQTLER
Sequence (P00742 235-488 limits assumed): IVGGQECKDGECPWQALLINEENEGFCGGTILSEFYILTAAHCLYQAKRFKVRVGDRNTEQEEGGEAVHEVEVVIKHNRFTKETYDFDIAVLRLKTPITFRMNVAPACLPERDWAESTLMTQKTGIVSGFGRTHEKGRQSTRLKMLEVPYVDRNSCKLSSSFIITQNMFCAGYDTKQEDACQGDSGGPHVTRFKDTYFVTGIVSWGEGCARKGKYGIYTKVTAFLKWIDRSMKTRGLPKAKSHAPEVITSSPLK
For each record, check the reported Ki: if it is below 500 nM write satisfied, else write not satisfied.

1. Cc1c(F)c(Oc2cccc(C(=N)N)c2)nc(Oc2cccc(C(=O)N3CCCCC3)c2)c1F = not satisfied
2. Cc1c(Oc2nc(Oc3cccc(C(=N)N)c3)c(F)c(C)c2F)cccc1N(C)C = satisfied
3. CCNc1cccc(Oc2nc(Oc3cccc(C(=N)N)c3)c(F)c(C)c2F)c1 = not satisfied
4. Cc1c(F)c(Oc2cccc(CCC(N)=O)c2)nc(Oc2cccc(C(=N)N)c2)c1F = not satisfied
5. Cc1c(F)c(Oc2cccc(C(=N)N)c2)nc(Oc2ccc(O)c(C(=O)N(C)C)c2)c1F = not satisfied
6. Cc1c(F)c(Oc2cccc(C(=O)N(C)C)c2)nc(Oc2cc(C(=N)N)ccc2NS(=O)(=O)C(F)(F)F)c1F = not satisfied
7. COc1cc(Oc2nc(Oc3cccc(C(=N)N)c3)c(F)c(C)c2F)cc(C(=O)N(C)C)c1 = satisfied

---

assaySummary: Plasma concentration after intravenous aministration at 1hr, (1 mg/kg, n=3)
Type: ADME, organism-based
statedConditions: rat
measurementName: concentration at 1 h

1) N=C(N)c1ccc(O)c(Oc2cc(C(=O)O)cc(Oc3cccc(C4=NCCN4)c3)n2)c1 = 1400 nM

---

system: Serine protease 1 (Bos taurus)
Sequence (P00760 whole entry): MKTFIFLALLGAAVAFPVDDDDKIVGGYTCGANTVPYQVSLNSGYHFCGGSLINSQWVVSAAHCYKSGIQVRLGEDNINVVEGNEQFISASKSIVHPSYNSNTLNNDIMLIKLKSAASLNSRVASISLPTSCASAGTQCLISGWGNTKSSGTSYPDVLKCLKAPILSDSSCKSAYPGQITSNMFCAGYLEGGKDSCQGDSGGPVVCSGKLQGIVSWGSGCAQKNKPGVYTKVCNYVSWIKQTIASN
Binned Ki; ranges: low-valued: < 2 µM; mid-valued: ≥ 2 µM and < 3 µM; high-valued: ≥ 3 µM

1) Cc1c(F)c(Oc2cccc(N(C)C)c2)nc(Oc2cc(C(=N)N)ccc2NS(C)(=O)=O)c1F = high-valued
2) CCOC(=O)c1cccc(Oc2nc(Oc3cccc(C(=N)N)c3)c(F)c(C)c2F)c1 = high-valued
3) Cc1c(F)c(Oc2cccc(C(=N)N)c2)nc(Oc2cccc(-n3ccnc3)c2)c1F = high-valued
4) Cc1c(F)c(Oc2cccc(N(C)C)c2)nc(Oc2cc(C(=N)N)ccc2O)c1F = low-valued
5) CCNc1cccc(Oc2nc(Oc3cccc(C(=N)N)c3)c(F)c(C)c2F)c1 = mid-valued
6) Cc1c(F)c(Oc2cccc(NC(N)=O)c2)nc(Oc2cccc(C(=N)N)c2)c1F = high-valued
7) Cc1c(F)c(Oc2cccc(C(=N)N)c2)nc(Oc2cccc(C(=O)N3CCCC3)c2)c1F = mid-valued
8) COc1cc(Oc2nc(Oc3cccc(C(=O)N(C)C)c3)c(F)c(C)c2F)c(O)c(C(=N)N)c1 = high-valued
9) Cc1c(Oc2nc(Oc3cccc(C(=N)N)c3)c(F)c(C)c2F)cccc1N(C)C = high-valued
10) CC1(C)CNC(c2cccc(Oc3cc(C(=O)O)cc(Oc4cc(C(=N)N)ccc4O)n3)c2)=N1 = low-valued
11) CCOC(=O)Cc1cccc(Oc2nc(Oc3cccc(C(=N)N)c3)c(F)c(C)c2F)c1 = high-valued
12) Cc1c(F)c(Oc2cccc(OC(C)C)c2)nc(Oc2cccc(C(=N)N)c2)c1F = mid-valued
13) Cc1c(F)c(Oc2cccc(C(=N)N)c2)nc(Oc2ccc(Cl)c(N(C)C)c2)c1F = low-valued
14) Cc1cn(C)c(-c2cccc(Oc3cc(C(=O)O)cc(Oc4cc(C(=N)N)ccc4O)n3)c2)n1 = low-valued
15) Cc1c(F)c(Oc2cccc(Nc3ccccc3)c2)nc(Oc2cccc(C(=N)N)c2)c1F = high-valued
16) Cc1c(F)c(Oc2cccc(N)c2)nc(Oc2cccc(C(=N)N)c2)c1F = high-valued
17) Cc1ccc(N(C)C)cc1Oc1nc(Oc2cccc(C(=N)N)c2)c(F)c(C)c1F = high-valued
18) CCOC(=O)c1ccc(N(C)C)cc1Oc1nc(Oc2cccc(C(=N)N)c2)c(F)c(C)c1F = high-valued
19) Cc1c(F)c(Oc2cccc(C(=N)N)c2)nc(Oc2cccc(C(O)C(=O)N(C)C)c2)c1F (stereo unspecified) = high-valued
20) COc1ccc(C(=O)N(C)C)cc1Oc1nc(Oc2cccc(C(=N)N)c2)c(F)c(C)c1F = mid-valued
21) Cc1c(F)c(Oc2cccc(NS(C)(=O)=O)c2)nc(Oc2cccc(C(=N)N)c2)c1F = low-valued
22) Cc1c(F)c(Oc2cccc(C(=N)N)c2)nc(Oc2cccc(C(=O)C(C)C)c2)c1F = high-valued
23) Cc1c(F)c(Oc2cccc(OC(F)(F)F)c2)nc(Oc2cccc(C(=N)N)c2)c1F = high-valued
24) Cc1cn(-c2cccc(Oc3cc(C(=O)O)cc(Oc4cc(C(=N)N)ccc4O)n3)c2)cn1 = low-valued

Hey, just so you know, these numbers are from ChEMBL document CHEMBL1135740.
